Value source: the supplement of paper PMC6555819

Below is a list of entries, each paired with its recorded PBM binding z-score value.
# Tested on: RARg homodimer (NR concentration 270 nM)
# Assay name: PBM binding z-score (relative to random genomic background probes); higher = stronger binding; sequences stand for … in GC…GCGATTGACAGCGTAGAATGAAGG
Just the number, please, no unit after it.

Illustrative cases are given below, each with its answer.
>>> df
                       sequence_chain                             tested_target  reported_value
0  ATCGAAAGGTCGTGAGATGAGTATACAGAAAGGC  RARg homodimer (NR concentration 270 nM)            3.47
1  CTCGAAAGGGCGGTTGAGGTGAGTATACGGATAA  RARg homodimer (NR concentration 270 nM)           0.636
2  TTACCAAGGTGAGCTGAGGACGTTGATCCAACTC  RARg homodimer (NR concentration 270 nM)           0.436
3  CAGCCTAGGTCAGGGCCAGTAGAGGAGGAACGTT  RARg homodimer (NR concentration 270 nM)             3.9
4  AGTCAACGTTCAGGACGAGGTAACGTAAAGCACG  RARg homodimer (NR concentration 270 nM)           0.412
5  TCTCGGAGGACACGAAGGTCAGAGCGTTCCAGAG  RARg homodimer (NR concentration 270 nM)            3.84

QUERY: Notebook entry, RARg homodimer (NR concentration 270 nM) assay: PBM binding z-score of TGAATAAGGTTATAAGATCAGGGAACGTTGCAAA = ?
RESULT: 1.14

QUERY: And for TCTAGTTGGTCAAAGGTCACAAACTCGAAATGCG ?
RESULT: 6.07

QUERY: One more sequence: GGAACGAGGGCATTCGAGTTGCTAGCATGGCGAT
RESULT: 1.12

QUERY: Repeat with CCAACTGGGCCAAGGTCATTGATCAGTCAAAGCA
RESULT: 2.52

QUERY: Same lookup for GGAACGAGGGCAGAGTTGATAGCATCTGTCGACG , please.
RESULT: 1.12

QUERY: Now consider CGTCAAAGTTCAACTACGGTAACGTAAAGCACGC and answer again.
RESULT: 6.48

QUERY: Next entry: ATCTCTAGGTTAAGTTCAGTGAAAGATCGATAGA
RESULT: 2.54

QUERY: # iterate: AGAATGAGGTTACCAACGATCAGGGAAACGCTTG
RESULT: 1.6

QUERY: And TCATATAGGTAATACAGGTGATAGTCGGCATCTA ?
RESULT: 0.526

QUERY: And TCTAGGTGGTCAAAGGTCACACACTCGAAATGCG ?
RESULT: 6.07

QUERY: Now try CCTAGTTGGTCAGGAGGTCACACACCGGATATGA .
RESULT: 4.78

----------
# Tested on: VDR homodimer (NR concentration 270 nM)
# Assay name: PBM binding z-score (relative to random genomic background probes); higher = stronger binding; sequences stand for … in GC…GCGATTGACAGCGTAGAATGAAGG
Quantity name: PBM binding z-score
Enter the number alone.

Guide cases for PBM binding z-score, answers given:
>>> print(df.to_string())
                       sequence_chain                            tested_target  reported_value
0  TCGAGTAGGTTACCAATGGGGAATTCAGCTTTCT  VDR homodimer (NR concentration 270 nM)          -0.782
1  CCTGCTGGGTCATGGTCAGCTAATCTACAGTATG  VDR homodimer (NR concentration 270 nM)         -0.0341

QUERY: # get_value(readout='PBM binding z-score', item= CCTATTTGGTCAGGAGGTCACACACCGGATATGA )
RESULT: 2.61

----------
# System: PPARg DBDmut IVT, anti-PPARg (DBD mutation: PPARg1 K132A/R137A, NR concentration 270 nM)
# Assay name: PBM binding z-score (relative to random genomic background probes); higher = stronger binding; sequences stand for … in GC…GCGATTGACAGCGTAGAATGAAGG
Quantity name: PBM binding z-score
Lab note: record the figure alone, no unit after it.

Worked cases, answers included:
                       sequence_chain  reported_value
0  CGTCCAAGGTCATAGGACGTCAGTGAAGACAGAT           0.692
1  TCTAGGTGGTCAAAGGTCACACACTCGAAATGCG            1.59
2  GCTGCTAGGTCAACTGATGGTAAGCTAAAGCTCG          -0.572
3  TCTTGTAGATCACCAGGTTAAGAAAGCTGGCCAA           0.181
4  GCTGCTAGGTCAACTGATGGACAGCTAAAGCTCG            -0.4
5  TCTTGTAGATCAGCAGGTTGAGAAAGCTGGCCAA           -1.18
6  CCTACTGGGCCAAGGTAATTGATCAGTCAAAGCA          -0.619
7  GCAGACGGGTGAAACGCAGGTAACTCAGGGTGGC          -0.958

QUERY: Entry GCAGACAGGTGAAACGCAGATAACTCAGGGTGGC has what PBM binding z-score?
RESULT: -0.959

QUERY: Field entry: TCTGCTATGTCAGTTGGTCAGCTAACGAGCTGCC
RESULT: 0.0922

QUERY: Also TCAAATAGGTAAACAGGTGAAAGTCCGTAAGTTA , if possible.
RESULT: 0.995

QUERY: # repeat for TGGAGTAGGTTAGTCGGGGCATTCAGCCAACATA
RESULT: -0.234

QUERY: Another sequence: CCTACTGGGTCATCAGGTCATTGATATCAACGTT
RESULT: 0.93

----------
Catalogue of PBM binding z-score values
# Tested on: LXRb homodimer (NR concentration 270 nM)
# Assay name: PBM binding z-score (relative to random genomic background probes); higher = stronger binding; sequences stand for … in GC…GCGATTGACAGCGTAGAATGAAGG
Keep it simple and answer with nothing but the number.

>>> df
                       sequence_chain        quantity_name  reported_value
0  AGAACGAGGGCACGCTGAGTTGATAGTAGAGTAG  PBM binding z-score          -0.699
1  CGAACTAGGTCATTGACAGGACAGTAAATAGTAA  PBM binding z-score          -0.338
2  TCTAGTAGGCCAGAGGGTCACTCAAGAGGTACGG  PBM binding z-score          -0.774
3  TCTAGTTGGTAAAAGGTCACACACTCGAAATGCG  PBM binding z-score            1.91

QUERY: I'd like to know its PBM binding z-score. The sequence in question is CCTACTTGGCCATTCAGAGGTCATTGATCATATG
RESULT: 1.21

QUERY: Same thing, different sequence: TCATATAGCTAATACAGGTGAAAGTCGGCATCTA
RESULT: -0.0868

----------
Below, each entry is listed alongside its reported PBM binding z-score.
# System: RARa homodimer (NR concentration 270 nM)
# Assay name: PBM binding z-score (relative to random genomic background probes); higher = stronger binding; sequences stand for … in GC…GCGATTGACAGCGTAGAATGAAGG

QUERY: What value of PBM binding z-score has been reported for the following sequence? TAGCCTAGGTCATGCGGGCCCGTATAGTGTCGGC
RESULT: -0.428

QUERY: Same question for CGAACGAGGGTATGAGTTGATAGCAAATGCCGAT please.
RESULT: 0.157

QUERY: Another sequence: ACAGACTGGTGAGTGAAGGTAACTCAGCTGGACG
RESULT: -0.0964

QUERY: Same thing, different sequence: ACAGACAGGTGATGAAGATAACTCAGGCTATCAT
RESULT: 0.47

QUERY: Now this one: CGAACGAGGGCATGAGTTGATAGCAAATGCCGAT
RESULT: -0.431

----------
# Test system: RARa homodimer (NR concentration 270 nM)
# Assay name: PBM binding z-score (relative to random genomic background probes); higher = stronger binding; sequences stand for … in GC…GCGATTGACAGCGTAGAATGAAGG
# cutoff 0.7 applies to PBM binding z-score; >= gives Y, < gives N

QUERY: Form field: PBM binding z-score at least 0.7? Entry: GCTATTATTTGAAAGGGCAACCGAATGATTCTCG
RESULT: Y

----------
# System: RARa homodimer (NR concentration 270 nM)
# Assay name: PBM binding z-score (relative to random genomic background probes); higher = stronger binding; sequences stand for … in GC…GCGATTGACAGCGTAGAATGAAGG
Quantity name: PBM binding z-score
// no unit, no text: just the number

Known results for sequences:
                       sequence_chain  reported_value
0  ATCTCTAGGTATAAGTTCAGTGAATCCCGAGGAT            1.02
1  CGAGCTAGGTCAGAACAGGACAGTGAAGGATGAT          -0.341
2  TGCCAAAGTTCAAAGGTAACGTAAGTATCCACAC            1.95

# ---- query sequence ----
QUERY: Tell me the measured PBM binding z-score of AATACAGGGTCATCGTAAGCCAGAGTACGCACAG , please.
RESULT: 0.623
